- System: HCT-116 human colon carcinoma cancer cells
- test details: Cytotoxicity / antiproliferative activity, crystal violet viability assay
- Type: cell-based
- condition label: HCT-116 cells, 3 days incubation, crystal violet absorbance at 590 nm relative to DMSO control, triplicate; read-out: IC50 (cytotoxicity against HCT-116)
recorded endpoint: IC50 (µM)

# compound, recorded endpoint, experimental result
rows = [
    ("COc1c2n(c3ccccc13)[C@]1(O)C(=O)N(C)C(=O)[C@]1(O)c1c-2[nH]c2ccc(Cl)cc12 [cladoniamide A, reference compound]", "IC50", 0.0404),
]
